# credit: ChEMBL document CHEMBL1145164

Exercise: state measured IC50 for each of the compounds provided.
Biological target: Glutathione reductase (Saccharomyces cerevisiae S288c, UniProt P41921)
Sequence (P41921 whole entry): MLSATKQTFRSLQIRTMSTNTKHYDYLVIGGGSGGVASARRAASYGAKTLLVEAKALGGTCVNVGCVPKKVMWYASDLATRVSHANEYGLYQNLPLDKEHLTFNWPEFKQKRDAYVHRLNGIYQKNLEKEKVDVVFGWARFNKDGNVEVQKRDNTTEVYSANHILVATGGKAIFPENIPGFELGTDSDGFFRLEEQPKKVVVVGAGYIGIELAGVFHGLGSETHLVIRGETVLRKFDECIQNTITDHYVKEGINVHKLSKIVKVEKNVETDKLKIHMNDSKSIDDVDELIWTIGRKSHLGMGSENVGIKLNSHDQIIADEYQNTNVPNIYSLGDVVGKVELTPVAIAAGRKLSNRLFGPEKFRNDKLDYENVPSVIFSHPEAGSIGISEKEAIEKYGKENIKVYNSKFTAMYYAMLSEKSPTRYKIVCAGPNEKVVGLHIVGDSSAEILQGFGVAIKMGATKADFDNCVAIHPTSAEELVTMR
Experiment: Inhibition of yeast glutathione reductase over 30 minutes pH 7.4 at 25 degree C

Query: Could you share which IC50 value was measured for CC(=O)NC(CSC(=O)Nc1cccc(NC(=O)SCC(NC(C)=O)C(=O)O)c1)C(=O)O (centres undefined) ?
Reply: 149 µM

Query: Could you share which IC50 value was measured for CC(=O)NC(CSC(=O)NCCCCCCNC(=O)SCC(NC(C)=O)C(=O)O)C(=O)O (centres undefined) ?
Reply: 455 µM

Query: Could you share which IC50 value was measured for CC(=O)NC(CSC(=O)NCCCCNC(=O)SCC(NC(C)=O)C(=O)O)C(=O)O (centres undefined) ?
Reply: 515 µM

Query: Could you share which IC50 value was measured for CC(=O)NC(CSC(=O)Nc1ccc(Cc2ccc(NC(=O)SCC(NC(C)=O)C(=O)O)cc2)cc1)C(=O)O (centres undefined) ?
Reply: 85 µM
